emission maximum overview
Test: solvent given as SMILES
Settings: in C1CCOC1

Some entries whose results are on file:
| MOL_SMILES | emission maximum |
| --- | --- |
| O=C1/C(=C\c2ccc3oc4ccccc4c3c2)S(=O)(=O)c2ccccc21 | 437 nm |
| COc1ccc(-c2c3ccc([nH]3)c3nc(c(-c4ccc([N+](=O)[O-])cc4)c4ccc([nH]4)c4ccc([nH]4)c(-c4ccc(OC)cc4)c4ccc2o4)C=C3)cc1 | 761 nm |
| CCOC(=O)c1ccccc1-c1c2ccc(=O)cc-2oc2cc(OC(=O)[C@H](CSCc3ccc(C)cc3)NC(=O)OC(C)(C)C)ccc12 | 518 nm |

Please examine the following record next.
Recorded emission maximum for CN(C)CCN(Cc1c2ccccc2c(CN(CCN(C)C)c2ccc([N+](=O)[O-])cc2[N+](=O)[O-])c2ccccc12)c1ccc([N+](=O)[O-])cc1[N+](=O)[O-] , please?
419 nm

* * *

Experiment: solvent given as SMILES
Conditions: in CCOCC
Consider the reported emission maximum of an entry and match it to a band in bottom end = under 400 nm, midrange = from 400 nm up to 500 nm, top end = 500 nm and over

See these solved cases before continuing.
| COMPOUND | LABEL |
| --- | --- |
| c1ccc(-c2nc(-c3ccc(-c4ccc(N(c5ccccc5)c5ccccc5)cc4)cn3)oc2-c2ccccc2)cc1 | midrange |
| Cc1ccc(C)n1-c1ccc(C#N)cc1 | midrange |
| O=S(=O)(c1ccc(-c2ccc(-c3nc4c5ccccc5c5ccccc5c4n3-c3ccccc3)cc2)cc1)c1ccc(-c2ccc(-c3nc4c5ccccc5c5ccccc5c4n3-c3ccccc3)cc2)cc1 | midrange |
| CN(C)c1ccc(C#Cc2ccccc2)cc1 | bottom end |
| OCC1O[C@@H](Cc2cc(O)cc(/C=C/c3ccc(O)c(O)c3)c2)[C@H](O)[C@@H](O)[C@@H]1O (some centres undefined) | bottom end |

Kindly identify the class of COc1ccc(/C=C2\OC(=O)c3cc(N)ccc32)cc1 .
midrange

Classify this compound: CN(C)c1ccc(C(=O)Nc2ccc([N+](=O)[O-])cc2)cc1
top end

State the band of CN(C)c1ccc(C(=O)Nc2ccc(Cl)cc2)cc1
midrange

Class label required: CN(C)c1ccc2c(c1)C(=O)NC2=O
midrange

Into which category would you place c1ccc2cc(-n3c4ccccc4c4ccccc43)ccc2c1 ?
bottom end

Each compound maps to one class by emission maximum. Which class for CN(C)c1ccc(C2=Cc3cccc[n+]3[B-](F)(F)O2)cc1 ?
midrange

Would you mind sorting COc1ccc(N(c2ccc(OC)cc2)c2ccc(-c3ccc4c(c3)C(=O)c3ccccc3C4=O)cc2)cc1 into the appropriate category?
top end

# classify by emission maximum band: CCCCN1c2ccccc2Sc2cc(/C=C/c3nc4nc5ccccc5nc4s3)ccc21
top end

Where would CCCCN1c2ccccc2Sc2cc(/C=C/C3=Nc4ccc5ccccc5c4C3(C)C)ccc21 land among the classes by reported emission maximum?
top end

GET /class?item= CCCCn1c2c(-c3ccc(N(c4ccccc4)c4ccccc4)cc3)cc(C#N)cc2c2cc(C#N)cc(-c3ccc(N(c4ccccc4)c4ccccc4)cc3)c21
midrange

Which class is correct for the following compound? CN(C)c1ccc(/C=C2\CC/C(=C\c3ccc(C#N)cc3)C2=O)cc1
top end

Which class does O=Cc1ccc(N(c2ccc(C=O)cc2)c2ccc(-c3ccc4c(c3)C(=O)c3ccccc3C4=O)cc2)cc1 fall in?
top end

Which class is correct for the following compound? CC(=O)c1nc(-c2ccc(N(C)C)cc2)oc1C
bottom end
